Reference for the values: ChEMBL document CHEMBL1201862

Give measured GI50 for each item. Keep answers brief.
System: SN12C
measurement_protocol: NCI tumour cell line growth inhibition, 48 h
Calls of active or inactive are those of the source. Cut-off read from the data, not from the text of the source: active = GI50 up to about 1.1 µM and inactive = higher. Peptide text beside a SMILES is read from it. * marks the point of attachment. Cbz = O=C(OCc1ccccc1)*

# batch: return GI50 for each of the 2 molecules below
1. CCOC(=O)NC(=O)c1cn(CC(=O)NCC(=O)NCC(=O)N2CCN(CCn3c(C)nc(C(N)=O)c3N)CC2)c(=O)[nH]c1=O
2. CC[C@H](C)[C@H](NC(=O)[C@H](Cc1ccc(O)cc1)NCC(F)(F)F)C(=O)OC(C)(C)C

A:
["> 100 µM (inactive)", "8.81 µM (inactive)"]

Below are 2 molecules. Give each one its GI50.
1. O=C(O)CCC(NC(=O)OCc1ccccc1)C(=O)NC(Cc1c[nH]cn1)C(=O)O (stereo not drawn) (Cbz-Glu-His-OH; configuration not given here)
2. NC(Cc1ccc(O)cn1)C(=O)NC(C(=O)O)c1ccccc1 (centres undefined)

A:
> 100 µM (inactive)
> 100 µM (inactive)

Dear reader, for each entry below, please note its GI50.
1. O=c1c2ccccc2n2c(S)nnc2n1-c1ccccc1
2. O=[N+]([O-])c1ccc2c(c1)OCCOCCOc1ccc([N+](=O)[O-])cc1OCCOCCO2

A:
["> 100 µM (inactive)", "> 100 µM (inactive)"]

Please state GI50 for every molecule in the list that follows.
1. COCCNC(=O)C1C(=O)N(CCOC)C(=O)/C1=N/N (centres undefined)
2. CCOC(=O)C1(C/C=C/CCl)CCCC1=O (centres undefined)
3. COc1ccc(/C=C2\CC3C4CC=C5C[C@@H](O)CC[C@]5(C)C4CC[C@]3(C)\C2=N\O)cc1OC (some centres undefined)

A:
> 100 µM (inactive)
24.1 µM (inactive)
15.7 µM (inactive)
